System: L02
Test: Antiproliferative activity against human HL7702 cells after 96 hrs by Cell-Titer Glo assay
Type: cell-based
Details: L02, 96 h
Endpoint name: IC50 (µM)

- Compound smiles: "COc1ccc2c(c1)c(C(=O)Nc1cc(C(=O)OC(C)(C)C)cc(-c3cnn(C)c3)c1F)cn2C(C)=O"
  Reported result: 40

---

Target: Bromodomain adjacent to zinc finger domain protein 2B (Homo sapiens)
Assay: Inhibition of biotinylated-H4KAc4 binding to human His6-tagged BAZ2B (S1858 to S1972 residues) expressed in Escherichia coli BL21(DE3) at 50 uM after 2.5 hrs by luminescence-based AlphaScreen assay relative to control

- Compound: "COc1ccc(CCc2nc3cc(-c4c(C)noc4C)ccc3n2C[C@H](C)N2CCOCC2)cc1Cl"
  Units of measure: "%"
  inhibition: 41
- Compound: "O=C1N=CC(c2cccc([N+](=O)[O-])c2)c2ccccc21 (stereo unspecified)"
  Units of measure: "%"
  inhibition: 59
- Compound: "CC(=O)c1coc2c1cc(O)c1ccccc12"
  Units of measure: "%"
  inhibition: 36
- Compound: "Nc1c(N2CCCC2)c2ccccc2oc1=O"
  Units of measure: "%"
  inhibition: 69
- Compound: "CC(=O)c1cn(CCC(=O)O)c2ccccc12"
  Units of measure: "%"
  inhibition: 21
- Compound: "CC(=O)OCc1cn(C(C)=O)c2ccccc12"
  Units of measure: "%"
  inhibition: 10

---

Below, each entry is listed with its recorded IC50.
Target: Transcription intermediary factor 1-alpha (Homo sapiens, UniProt O15164)
Sequence (O15164 whole entry): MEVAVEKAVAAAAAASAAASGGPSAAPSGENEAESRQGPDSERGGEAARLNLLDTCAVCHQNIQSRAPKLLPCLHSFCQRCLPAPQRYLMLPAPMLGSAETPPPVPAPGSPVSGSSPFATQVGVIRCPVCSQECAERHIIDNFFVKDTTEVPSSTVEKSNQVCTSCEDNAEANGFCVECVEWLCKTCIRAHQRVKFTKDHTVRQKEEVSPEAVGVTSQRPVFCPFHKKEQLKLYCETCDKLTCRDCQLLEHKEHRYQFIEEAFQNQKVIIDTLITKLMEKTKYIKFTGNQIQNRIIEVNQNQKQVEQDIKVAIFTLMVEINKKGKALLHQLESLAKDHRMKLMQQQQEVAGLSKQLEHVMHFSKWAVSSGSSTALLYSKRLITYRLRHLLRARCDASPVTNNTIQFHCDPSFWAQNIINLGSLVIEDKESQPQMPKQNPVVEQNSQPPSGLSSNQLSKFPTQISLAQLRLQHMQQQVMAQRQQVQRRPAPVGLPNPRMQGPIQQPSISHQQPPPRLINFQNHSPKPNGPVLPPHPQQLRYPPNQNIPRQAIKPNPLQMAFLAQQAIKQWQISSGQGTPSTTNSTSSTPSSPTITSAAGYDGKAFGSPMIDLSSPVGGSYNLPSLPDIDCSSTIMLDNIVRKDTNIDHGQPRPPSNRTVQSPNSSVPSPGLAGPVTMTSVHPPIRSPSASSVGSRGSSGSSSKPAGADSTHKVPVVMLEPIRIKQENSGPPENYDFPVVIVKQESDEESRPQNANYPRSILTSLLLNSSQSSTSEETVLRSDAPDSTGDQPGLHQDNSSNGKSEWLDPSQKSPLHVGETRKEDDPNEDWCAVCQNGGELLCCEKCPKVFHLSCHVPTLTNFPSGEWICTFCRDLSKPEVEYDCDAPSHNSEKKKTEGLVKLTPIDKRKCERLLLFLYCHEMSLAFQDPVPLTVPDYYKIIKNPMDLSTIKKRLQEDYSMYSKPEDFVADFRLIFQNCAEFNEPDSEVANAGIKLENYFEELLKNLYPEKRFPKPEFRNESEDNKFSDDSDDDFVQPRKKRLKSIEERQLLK
Endpoint name: IC50

- Compound smiles: "CC(=O)n1cc(C(=O)Nc2cc(C(=O)O)ccc2F)c2ccccc21"
  Study system: "Transcription intermediary factor 1-alpha (Homo sapiens, UniProt O15164)"
  Reported result: "> 20 µM"
- Compound smiles: "COc1ccc2c(c1)c(C(=O)Nc1cc(C(=O)O)cc(-c3cnn(C)c3)c1)cn2C(C)=O"
  Study system: "Transcription intermediary factor 1-alpha (Homo sapiens, UniProt O15164)"
  Reported result: "> 20 µM"

---

Some compounds, each annotated with its measured inhibition.
Target: Bromodomain adjacent to zinc finger domain protein 2B (Homo sapiens, UniProt Q9UIF8)
Sequence (Q9UIF8 whole entry, the tested form may be a part): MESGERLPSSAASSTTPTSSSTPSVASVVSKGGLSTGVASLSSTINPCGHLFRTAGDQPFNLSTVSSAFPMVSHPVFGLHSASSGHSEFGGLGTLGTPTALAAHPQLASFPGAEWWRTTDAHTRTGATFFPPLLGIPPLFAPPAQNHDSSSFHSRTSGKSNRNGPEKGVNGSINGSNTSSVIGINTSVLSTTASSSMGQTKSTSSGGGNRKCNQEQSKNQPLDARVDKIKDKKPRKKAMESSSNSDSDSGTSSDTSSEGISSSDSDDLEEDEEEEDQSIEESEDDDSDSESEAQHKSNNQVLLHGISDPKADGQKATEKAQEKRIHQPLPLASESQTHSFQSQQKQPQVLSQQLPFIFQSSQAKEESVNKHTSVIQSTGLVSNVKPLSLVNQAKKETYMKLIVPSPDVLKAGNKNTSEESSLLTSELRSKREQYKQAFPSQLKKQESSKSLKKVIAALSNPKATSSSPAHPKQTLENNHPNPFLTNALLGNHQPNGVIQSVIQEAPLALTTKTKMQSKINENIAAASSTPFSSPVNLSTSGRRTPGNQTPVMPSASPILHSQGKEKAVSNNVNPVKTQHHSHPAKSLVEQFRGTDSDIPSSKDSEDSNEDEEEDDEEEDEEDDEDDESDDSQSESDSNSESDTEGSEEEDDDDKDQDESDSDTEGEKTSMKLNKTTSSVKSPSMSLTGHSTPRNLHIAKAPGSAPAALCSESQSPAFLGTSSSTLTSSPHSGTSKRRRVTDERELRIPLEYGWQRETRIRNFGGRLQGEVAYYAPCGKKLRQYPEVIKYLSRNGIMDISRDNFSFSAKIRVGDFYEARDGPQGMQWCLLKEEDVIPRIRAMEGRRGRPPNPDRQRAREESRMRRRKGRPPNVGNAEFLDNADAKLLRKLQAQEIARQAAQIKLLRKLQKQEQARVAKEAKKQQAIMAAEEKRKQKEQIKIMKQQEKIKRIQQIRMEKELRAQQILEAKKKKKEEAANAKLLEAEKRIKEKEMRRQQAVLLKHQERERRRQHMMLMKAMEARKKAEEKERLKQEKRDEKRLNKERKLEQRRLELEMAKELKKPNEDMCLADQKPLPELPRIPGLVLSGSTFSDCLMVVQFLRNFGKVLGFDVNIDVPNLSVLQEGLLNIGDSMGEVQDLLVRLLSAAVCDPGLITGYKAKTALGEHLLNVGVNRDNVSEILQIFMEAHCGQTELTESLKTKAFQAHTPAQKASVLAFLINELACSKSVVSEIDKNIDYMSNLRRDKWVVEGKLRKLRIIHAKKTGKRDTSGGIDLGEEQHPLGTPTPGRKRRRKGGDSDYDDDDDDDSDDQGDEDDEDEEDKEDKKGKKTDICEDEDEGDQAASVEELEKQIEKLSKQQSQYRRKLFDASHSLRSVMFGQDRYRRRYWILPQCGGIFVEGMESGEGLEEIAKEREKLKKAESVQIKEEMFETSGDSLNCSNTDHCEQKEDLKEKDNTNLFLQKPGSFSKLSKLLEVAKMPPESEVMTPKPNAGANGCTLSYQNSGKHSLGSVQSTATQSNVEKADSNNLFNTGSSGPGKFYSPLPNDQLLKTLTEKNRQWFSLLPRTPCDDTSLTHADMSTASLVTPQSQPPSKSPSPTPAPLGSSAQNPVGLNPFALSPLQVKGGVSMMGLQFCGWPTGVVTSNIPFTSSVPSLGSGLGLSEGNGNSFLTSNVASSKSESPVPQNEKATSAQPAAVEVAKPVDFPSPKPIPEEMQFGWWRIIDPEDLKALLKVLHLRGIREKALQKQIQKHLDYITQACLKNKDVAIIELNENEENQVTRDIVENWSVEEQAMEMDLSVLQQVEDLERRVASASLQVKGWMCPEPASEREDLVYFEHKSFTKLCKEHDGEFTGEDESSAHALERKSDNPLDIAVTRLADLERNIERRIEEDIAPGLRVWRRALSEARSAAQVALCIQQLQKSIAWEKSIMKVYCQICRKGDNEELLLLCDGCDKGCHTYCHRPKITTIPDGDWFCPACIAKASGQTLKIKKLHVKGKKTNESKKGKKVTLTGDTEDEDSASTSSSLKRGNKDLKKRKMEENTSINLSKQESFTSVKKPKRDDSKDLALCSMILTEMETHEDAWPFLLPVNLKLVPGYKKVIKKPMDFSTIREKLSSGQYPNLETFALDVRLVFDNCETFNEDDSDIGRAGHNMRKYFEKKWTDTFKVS
Assay: Inhibition of biotinylated-H4KAc4 binding to human His6-tagged BAZ2B (S1858 to S1972 residues) expressed in Escherichia coli BL21(DE3) at 50 uM after 2.5 hrs by luminescence-based AlphaScreen assay relative to control

- Compound smiles: "CC(=O)c1nn(-c2ccccc2)c(C)c1C(C)=O"
  Units of measure: "%"
  inhibition: 6
- Compound smiles: "CC(=O)n1c(C#N)nc2ccccc21"
  Units of measure: "%"
  inhibition: 24
- Compound smiles: "Cn1nc(-c2ccc(Cl)cc2)c2ccccc2c1=O"
  Units of measure: "%"
  inhibition: 34
- Compound smiles: "Nc1c(Nc2ccccc2)c2ccccc2oc1=O"
  Units of measure: "%"
  inhibition: 32
- Compound smiles: "CC(=O)n1ncc2c([N+](=O)[O-])cc([N+](=O)[O-])cc21"
  Units of measure: "%"
  inhibition: 97
- Compound smiles: "CC(=O)Nc1ccc2c(c1)c1ccccc1n2C(C)=O"
  Units of measure: "%"
  inhibition: 10
- Compound smiles: "CC(=O)c1nn(-c2ccccc2)cc1C(=O)c1ccccc1"
  Units of measure: "%"
  inhibition: 21
